Target: OR13C5 (Homo sapiens) (UniProt Q8NGS8)
Sequence (Q8NGS8 whole entry): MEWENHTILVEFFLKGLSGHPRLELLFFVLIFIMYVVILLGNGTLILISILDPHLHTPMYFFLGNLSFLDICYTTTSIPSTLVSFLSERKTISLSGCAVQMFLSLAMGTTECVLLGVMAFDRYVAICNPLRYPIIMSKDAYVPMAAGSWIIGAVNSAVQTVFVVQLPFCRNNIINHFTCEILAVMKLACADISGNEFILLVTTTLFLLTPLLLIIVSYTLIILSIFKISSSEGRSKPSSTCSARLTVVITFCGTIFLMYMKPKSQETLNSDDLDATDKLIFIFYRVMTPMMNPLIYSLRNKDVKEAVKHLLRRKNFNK
Conditions: stereoisomer not certain
Respond only with the outcome that fits, drawn from Y for active, N for inactive

Example cases with answers are listed next.
                                   molecule  discretelabel
0         CCCCC(S)C(C)CO (stereo not drawn)              N
1               CC(CO)CS (stereo not drawn)              Y
2  CC1CCCCCCCCCCCCC(=O)C1 (stereo not drawn)              N
3  CC(=O)c1c(C)c([N+](=O)[O-])c(C(C)(C)C)c([N+](=O)[O-])c1C              N
4        CCCCCC(S)C(C)CO (stereo not drawn)              N
5     CCC1OC(=O)C(O)=C1C (stereo not drawn)              N

Look up the recorded call for CC1=C(O)C(=O)C(C)O1 (stereo not drawn) in this test. N

Look up the recorded call for CCC(S)C(C)CO (stereo not drawn) in this test. N
